# TESTED TARGET: PDZ protein (GST-PDZ fusion) (Homo sapiens, UniProt Q6P0Q8)
# Construct: made in house; host or cells: E. coli (DH5alpha, BL21 or JM109)
# Sequence (Q6P0Q8 whole entry, the tested form may be a part): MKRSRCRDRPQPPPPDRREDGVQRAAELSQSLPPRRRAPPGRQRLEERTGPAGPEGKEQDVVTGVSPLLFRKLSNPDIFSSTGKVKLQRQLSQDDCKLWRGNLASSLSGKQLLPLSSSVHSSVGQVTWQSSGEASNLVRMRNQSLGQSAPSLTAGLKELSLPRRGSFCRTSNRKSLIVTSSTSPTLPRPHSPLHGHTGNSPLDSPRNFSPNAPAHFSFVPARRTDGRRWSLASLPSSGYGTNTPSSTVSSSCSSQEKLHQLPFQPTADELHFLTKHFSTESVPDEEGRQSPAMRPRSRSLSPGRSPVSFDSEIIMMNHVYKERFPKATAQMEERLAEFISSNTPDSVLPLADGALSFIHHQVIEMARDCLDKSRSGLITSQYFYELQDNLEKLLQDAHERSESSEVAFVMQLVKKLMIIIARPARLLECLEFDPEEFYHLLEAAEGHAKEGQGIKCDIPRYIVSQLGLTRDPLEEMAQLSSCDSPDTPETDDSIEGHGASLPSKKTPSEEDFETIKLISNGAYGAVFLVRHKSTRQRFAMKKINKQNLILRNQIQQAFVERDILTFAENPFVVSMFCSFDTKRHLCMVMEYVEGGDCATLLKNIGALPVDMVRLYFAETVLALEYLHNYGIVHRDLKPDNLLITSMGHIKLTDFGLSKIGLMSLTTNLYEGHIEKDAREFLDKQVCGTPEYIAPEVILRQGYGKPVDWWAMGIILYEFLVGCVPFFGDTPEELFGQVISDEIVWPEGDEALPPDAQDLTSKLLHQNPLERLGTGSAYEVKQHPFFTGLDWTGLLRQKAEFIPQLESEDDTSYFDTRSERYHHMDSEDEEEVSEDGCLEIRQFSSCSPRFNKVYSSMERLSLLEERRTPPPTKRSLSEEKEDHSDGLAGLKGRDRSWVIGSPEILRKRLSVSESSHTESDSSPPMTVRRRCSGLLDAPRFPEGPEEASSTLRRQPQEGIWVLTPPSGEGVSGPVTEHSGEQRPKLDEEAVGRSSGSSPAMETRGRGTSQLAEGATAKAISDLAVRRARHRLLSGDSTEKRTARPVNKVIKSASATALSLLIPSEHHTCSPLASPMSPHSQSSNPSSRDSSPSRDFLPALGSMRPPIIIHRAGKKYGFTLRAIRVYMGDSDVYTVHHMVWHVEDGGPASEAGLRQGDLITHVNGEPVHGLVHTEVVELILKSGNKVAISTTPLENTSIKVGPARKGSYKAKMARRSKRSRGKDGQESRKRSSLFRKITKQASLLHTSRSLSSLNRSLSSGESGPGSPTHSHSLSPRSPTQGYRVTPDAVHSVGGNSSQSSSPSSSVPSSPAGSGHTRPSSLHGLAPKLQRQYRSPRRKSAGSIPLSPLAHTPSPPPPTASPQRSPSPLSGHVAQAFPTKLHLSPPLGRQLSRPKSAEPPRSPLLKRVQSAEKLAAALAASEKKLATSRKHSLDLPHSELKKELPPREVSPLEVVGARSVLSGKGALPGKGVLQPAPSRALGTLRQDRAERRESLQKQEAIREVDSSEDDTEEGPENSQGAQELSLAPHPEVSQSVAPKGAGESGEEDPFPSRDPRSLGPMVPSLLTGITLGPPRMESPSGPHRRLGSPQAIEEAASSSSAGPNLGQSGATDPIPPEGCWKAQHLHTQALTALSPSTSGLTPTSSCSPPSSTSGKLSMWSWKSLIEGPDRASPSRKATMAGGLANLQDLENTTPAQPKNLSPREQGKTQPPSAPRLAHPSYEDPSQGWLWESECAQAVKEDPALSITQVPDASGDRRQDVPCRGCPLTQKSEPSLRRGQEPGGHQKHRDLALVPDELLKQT
# MEASUREMENT NOTES: G' assay (10 uM PL peptide), results of TABLE 7 and TABLE 12
# Type: binding
# TEST CONTEXT: PDZ KIAA0807(S), PDZ Domain 1
Ends that are not written are not given here. * marks the point of attachment. Biotin = O=C1N[C@H]2[C@H](CS[C@H]2CCCCC(=O)*)N1
REPORTED METRIC: Classification

Solved entries:
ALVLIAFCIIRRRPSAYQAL (Biotin-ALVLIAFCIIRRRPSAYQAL) [CD68] :: 5 (A450 nm of 4 more than 2× repeated)
NSYVRDDAIFIKAIVDLTGL (Biotin-NSYVRDDAIFIKAIVDLTGL) [TRAF2] :: 4 (A450 nm 3-4)
NGGFAVDKSDTISFTQTSQF [glutamate transporter 3] :: 1 (A450 nm 0-1)
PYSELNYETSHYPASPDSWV (Biotin-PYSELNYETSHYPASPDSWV) [catenin - delta 2] :: 3 (A450 nm 2-3)

Kindly note the recorded Classification for RDSFHRSSFRKAETQLSQGS (Biotin-RDSFHRSSFRKAETQLSQGS) [Clasp-5] , which is 1 (A450 nm 0-1)

Kindly note the recorded Classification for IVFIHSFLSAKVTRLGLLA (Biotin-IVFIIHSFLSAKVTRLGLLA) [alpha-1-syntrophin] , which is 1 (A450 nm 0-1)

Kindly note the recorded Classification for ACM3_HUMAN (Biotin-QQYQQRQSVIFHKRAPEQAL) , which is 1 (A450 nm 0-1)

Kindly note the recorded Classification for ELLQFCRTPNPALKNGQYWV (Biotin-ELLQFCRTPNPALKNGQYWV) , which is 1 (A450 nm 0-1)

Kindly note the recorded Classification for PVYIVQEMPPQSPANIYYKV (Biotin-PVYIVQEMPPQSPANIYYKV) [ephrin B1] , which is 1 (A450 nm 0-1)

Kindly note the recorded Classification for SPQPDSTDNDDYDDISAA (Biotin-SPQPDSTDNDDYDDISAA) [CD6] , which is 1 (A450 nm 0-1)

Kindly note the recorded Classification for TALRIKKTLAKMVESQDVKI (Biotin-TALRIKKTLAKMVESQDVKI) [bone morphogenetic protein receptor] , which is 1 (A450 nm 0-1)

Kindly note the recorded Classification for SSKSKSSEESQTFFGLYKL (Biotin-SSKSKSSEESQTFFGLYKL) [Fas Ligand] , which is 5 (A450 nm of 4 more than 2× repeated)

Kindly note the recorded Classification for LLNVLQRQELGDGLDDEIAV (Biotin-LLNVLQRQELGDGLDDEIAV) , which is 1 (A450 nm 0-1)

Kindly note the recorded Classification for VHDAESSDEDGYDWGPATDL (Biotin-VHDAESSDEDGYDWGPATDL) [zona occludens 3 (ZO-3)] , which is 5 (A450 nm of 4 more than 2× repeated)

Kindly note the recorded Classification for VISKATPALPTVSISSSAEV (Biotin-VISKATPALPTVSISSSAEV) [Clasp-1] , which is 1 (A450 nm 0-1)

Kindly note the recorded Classification for KDSRPSFVGSSSGHTSTTL (Biotin-KDSRPSFVGSSSGHTSTTL) [CDw128B] , which is 5 (A450 nm of 4 more than 2× repeated)

Kindly note the recorded Classification for A2AA_HUMAN (modified) (Biotin-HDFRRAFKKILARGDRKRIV; not fully specified) , which is 1 (A450 nm 0-1)

Kindly note the recorded Classification for GGGGGSGGGGGSGIESVKI [GLUR2 (glutamate receptor 2-modified)] , which is 1 (A450 nm 0-1)
